Values were extracted from patent US11773127B2.

Molecular target: FmlHLD (Escherichia coli, UniProt P77588)
Construct: 6xHis (C); made in house; host or cells: E. coli C600, periplasm, pTRC99a
Sequence (P77588 25-182): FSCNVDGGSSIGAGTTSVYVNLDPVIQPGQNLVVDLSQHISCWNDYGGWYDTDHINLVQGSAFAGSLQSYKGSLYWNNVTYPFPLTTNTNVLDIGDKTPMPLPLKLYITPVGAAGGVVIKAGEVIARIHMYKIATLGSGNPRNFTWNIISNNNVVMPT
Assay: biochemical
Assay type: binding, E. coli
Conditions: read-out: % Inhibition at [μM] [1], compound at 1 μM; inhibition of FmlHLD binding to ds-BSM
property_name: inhibition at 1 µM (%)

> print(dat)
                                    compound       property.name  reported.measurement
 1  CC(=O)N[C@H]1[C@H](Oc2ccccc2-c2cccc(NS(C)(=O)=O)c2)O[C@H](CO)[C@H](O)[C@@H]1O [AM2038]  inhibition at 1 µM                  81.4
 2  CC(=O)N[C@H]1[C@H](Oc2ccccc2[N+](=O)[O-])O[C@H](CO)[C@H](O)[C@@H]1O [ONPG-NAc]  inhibition at 1 µM                  22.4
 3  CC(=O)N[C@H]1[C@H](Oc2cccc3cc4ccccc4nc23)O[C@H](CO)[C@H](O)[C@@H]1O [AM2003]  inhibition at 1 µM                  15.4
 4  CC(=O)N[C@H]1[C@H](Oc2ccccc2-c2cccc(C(=O)N(C)C)c2)O[C@H](CO)[C@H](O)[C@@H]1O [AM2032]  inhibition at 1 µM                 -3.61
 5  Cc1cc(=O)oc2cc(O[C@@H]3O[C@H](CO)[C@H](O)[C@H](O)[C@H]3O)ccc12 [MUG, reference compound]  inhibition at 1 µM                  8.73
 6  CC(=O)N[C@H]1[C@H](Oc2ccccc2-c2cccc(CO)c2)O[C@H](CO)[C@H](O)[C@@H]1O [AM2064]  inhibition at 1 µM                  38.9
 7  CC(=O)N[C@H]1[C@H](Oc2ccccc2-c2cccc(C(N)=O)c2)O[C@H](CO)[C@H](O)[C@@H]1O [AM2033]  inhibition at 1 µM                  3.52
 8  CC(=O)N[C@H]1[C@H](Oc2ccccc2-c2cccc(F)c2)O[C@H](CO)[C@H](O)[C@@H]1O [AM2028]  inhibition at 1 µM                  11.8
 9  COc1cccc(-c2ccccc2O[C@@H]2O[C@H](CO)[C@H](O)[C@H](O)[C@H]2NC(C)=O)c1 [AM2029]  inhibition at 1 µM                  15.5
10  CC(=O)N[C@H]1[C@H](Oc2cccc3c(C)ccnc23)O[C@H](CO)[C@H](O)[C@@H]1O [AM1192]  inhibition at 1 µM                  16.8
11  CNC(=O)c1cccc(-c2ccccc2O[C@@H]2O[C@H](CO)[C@H](O)[C@H](O)[C@H]2O)c1 [AM2042]  inhibition at 1 µM                  16.6
12  CC(=O)Nc1cccc(-c2ccccc2O[C@@H]2O[C@H](CO)[C@H](O)[C@H](O)[C@H]2NC(C)=O)c1 [AM2062]  inhibition at 1 µM                  67.9
13  CC(=O)N[C@H]1[C@H](Oc2ccc3ncccc3c2)O[C@H](CO)[C@H](O)[C@@H]1O [AM1184]  inhibition at 1 µM                  7.56
14  Cc1ccccc1O[C@@H]1O[C@H](CO)[C@H](O)[C@H](O)[C@H]1O [Compound 135b]  inhibition at 1 µM                  1.81
15  CC(=O)N[C@H]1[C@H](Oc2ccc3ccncc3c2)O[C@H](CO)[C@H](O)[C@@H]1O [AM2002]  inhibition at 1 µM                  20.2
16  CC(=O)N[C@H]1[C@H](Oc2ccccc2-c2cccc(OS(C)(=O)=O)c2)O[C@H](CO)[C@H](O)[C@@H]1O [AM2078]  inhibition at 1 µM                  32.5
17  O=C(O)c1cc(-c2ccccc2O[C@@H]2O[C@H](CO)[C@H](O)[C@H](O)[C@H]2O)cc([N+](=O)[O-])c1 [AM2050]  inhibition at 1 µM                    68
18  CC(=O)N[C@H]1[C@H](Oc2ccccc2-c2cccc(C#N)c2)O[C@H](CO)[C@H](O)[C@@H]1O [AM2035]  inhibition at 1 µM                  20.9
19  OC[C@H]1O[C@@H](Oc2ccccc2Cl)[C@H](O)[C@@H](O)[C@H]1O [Compound 154c]  inhibition at 1 µM                  7.95
20  CS(=O)(=O)Nc1cccc(-c2ccccc2O[C@@H]2O[C@H](CO)[C@H](O)[C@H](O)[C@H]2O)c1 [AM2043]  inhibition at 1 µM                  49.8
21  N#Cc1ccccc1O[C@@H]1O[C@H](CO)[C@H](O)[C@H](O)[C@H]1O [Compound 137b]  inhibition at 1 µM                  12.1
22  CC(=O)N[C@@H]1[C@@H](O)[C@@H](O)[C@@H](CO)O[C@H]1N(CC(=O)NC(C)(C)C)C(=O)c1cccc2cccnc12 [AM1165]  inhibition at 1 µM                  5.57
23  Cc1c(C)c2ccc(O[C@@H]3O[C@H](CO)[C@H](O)[C@H](O)[C@H]3O)cc2oc1=O [Compound D715-0293, reference compound]  inhibition at 1 µM                  10.2
24  CNC(=O)c1cccc(-c2ccccc2O[C@@H]2O[C@H](CO)[C@H](O)[C@H](O)[C@H]2NC(C)=O)c1 [AM1189]  inhibition at 1 µM                  12.3
25  CC(C)(C)NC(=O)CN(C(=O)c1cccc2cccnc12)[C@@H]1O[C@H](CO)[C@H](O)[C@H](O)[C@H]1O [AM1181]  inhibition at 1 µM                  10.8
26  COC(=O)c1cccc(-c2ccccc2O[C@@H]2O[C@H](CO)[C@H](O)[C@H](O)[C@H]2O)c1 [Compound 116f]  inhibition at 1 µM                   3.7
27  CC(=O)N[C@H]1[C@H](Oc2cccc3cccnc23)O[C@H](CO)[C@H](O)[C@@H]1O [AM1176]  inhibition at 1 µM                    21
28  N#Cc1ccc(O[C@@H]2O[C@H](CO)[C@H](O)[C@H](O)[C@H]2O)cc1 [Compound 152b]  inhibition at 1 µM                  9.47
29  O=[N+]([O-])c1ccccc1O[C@@H]1O[C@H](CO)[C@H](O)[C@H](O)[C@H]1O [ONPG, o-nitrophenyl β-galactoside, reference compound]  inhibition at 1 µM                  14.2
